Where these numbers come from: PubChem BioAssay (EPA / NIEHS)

biological target: human Adrenergic, Alpha 2c Receptor (Adra2C), ADRA2C (gene 152) (UniProt P18825); test: NVS_GPCR_hAdra2C: NovaScreen (NVS) G Protein-Coupled Receptor Assay for human Adrenergic, Alpha 2c Receptor (Adra2C) (AID 2283259)
Sequence (P18825 whole entry, looked up): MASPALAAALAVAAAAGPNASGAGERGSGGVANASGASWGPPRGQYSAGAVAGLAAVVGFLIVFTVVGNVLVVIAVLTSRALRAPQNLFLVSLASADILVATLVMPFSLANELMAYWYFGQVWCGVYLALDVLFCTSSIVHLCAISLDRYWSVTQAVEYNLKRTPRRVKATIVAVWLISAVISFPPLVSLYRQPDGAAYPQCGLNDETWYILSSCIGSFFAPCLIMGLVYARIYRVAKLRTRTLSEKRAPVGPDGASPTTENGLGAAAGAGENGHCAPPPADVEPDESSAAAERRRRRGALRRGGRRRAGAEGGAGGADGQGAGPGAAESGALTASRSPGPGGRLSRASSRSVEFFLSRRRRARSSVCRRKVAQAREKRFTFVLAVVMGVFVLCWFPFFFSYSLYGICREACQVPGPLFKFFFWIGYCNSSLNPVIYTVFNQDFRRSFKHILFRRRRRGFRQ
Records with an inconclusive call do not appear. Active and inactive are the calls of the source. Rule for the calls: active = hit-call score of the fitted dose curve at least 0.9, where 1 is the maximum; inconclusive = response in the unintended direction; inactive = score below 0.9.
quantity_measured: AC50

INSERT INTO assay_data (molecule, recorded_value) VALUES
  ('Oc1ccc(Cl)cc1Cc1ccccc1', '25.2 µM (active) [middle of 6 runs]'),
  ('CC[C@H](C)[C@H]1O[C@]2(C=C[C@@H]1C)C[C@@H]1C[C@@H](C/C=C(\C)[C@@H](O[C@H]3C[C@H](OC)[C@@H](O[C@H]4C[C@H](OC)[C@@H](O)[C@H](C)O4)[C@H](C)O3)[C@@H](C)/C=C/C=C3\CO[C@@H]4[C@H](O)C(C)=C[C@@H](C(=O)O1)[C@]34O)O2 (tested in a mixture with another compound)', '6.06 µM (active)'),
  ('O=C(O)C(F)(F)C(F)(F)C(F)(F)C(F)(F)C(F)(F)C(F)(F)C(F)(F)F', 'inactive'),
  ('O=C(Nc1ccccc1)Nc1cnns1', '4.96 µM (active)'),
  ('CCC(C)(C)C(=O)OC1=C(c2ccc(Cl)cc2Cl)C(=O)OC12CCCCC2', 'inactive'),
  ('CCCN(CCOc1c(Cl)cc(Cl)cc1Cl)C(=O)n1ccnc1', '4.96 µM (active)'),
  ('Oc1cc(Cl)ccc1Oc1ccc(Cl)cc1Cl', '6.8 µM (active)');

###

read-out: adenosine kinase (ADK) gene, ADK (gene 132); test: LTEA_HepaRG_ADK: Life Technologies and Expression Analysis (LTEA) Assay for adenosine kinase (ADK) gene using HepaRG (AID 2283471); details: mRNA level, 48 h; actives raise or lower the signal
Active and inactive are the calls of the source. How the source made its calls: active means hit-call score of the fitted dose curve at least 0.9, where 1 is the maximum; inactive means score below 0.9.
Outcome codes: active, inactive

INSERT INTO assay_data (compound, cat) VALUES
  ('Oc1ccc(Cl)cc1Cc1ccccc1', 'inactive'),
  ('ClC1C(Cl)C(Cl)C(Cl)C(Cl)C1Cl (configuration not stated)', 'inactive'),
  ('OCCOc1ccccc1', 'inactive'),
  ('CCOC1Oc2ccc(OS(C)(=O)=O)cc2C1(C)C (configuration not stated)', 'inactive'),
  ('COc1nn(CSP(=S)(OC)OC)c(=O)s1', 'inactive'),
  ('CC1(c2ccc(Oc3ccccc3)cc2)OC(=O)N(Nc2ccccc2)C1=O (configuration not stated)', 'active'),
  ('O=[N+]([O-])c1c(Cl)c(Cl)c(Cl)c(Cl)c1Cl', 'inactive');

###

biological target: Nuclear respiratory factor 1 (Homo sapiens); assay: ATG_NRF1_CIS: Attagene CIS-FACTORIAL HepG2 Assay for human Nuclear Respiratory Factor 1 (NRF1) Orphan Gene (AID 2282987); settings: HepG2 NRF1 cis-element reporter, Attagene multiplex; actives raise or lower the signal
The source made the active and inactive calls. The calls were made as follows: active = hit-call score of the fitted dose curve at least 0.9, where 1 is the maximum; inactive = score below 0.9.
quantity_measured: outcome

INSERT INTO assay_data (compound, quantity_measured, recorded_value) VALUES
  ('COP(=S)(OC)Oc1ccc([N+](=O)[O-])cc1', 'outcome', 'inactive'),
  ('CC(C)(C)C(O)/C(=C\c1ccc(Cl)cc1Cl)n1cncn1 (stereo not drawn)', 'outcome', 'inactive'),
  ('CC(C)(C)C(O)C(Oc1ccc(Cl)cc1)n1cncn1 (stereo not drawn)', 'outcome', 'inactive');
